# experiment_summary: rat plasma protein equilibrium dialysis assay
# Format: in vitro ADME
# run_conditions: read-out: rat plasma protein binding (converted)
measure_name: fraction unbound
In your answer, state the number alone without any accompanying words.

Given the entry COc1ncc(-c2ccc3c(Nc4cc(Oc5cc(F)cc(F)c5)cc(C(=O)O)c4)c(S(=O)(=O)NC4CC4)cnc3c2)c(OC)n1 [Compound 1] , report its measured fraction unbound.
0.012

====

# study_system: Nicotinic Ach Receptor A1 (Homo sapiens, UniProt P02708+P07510+Q07001)
# Sequence (P02708 21-457): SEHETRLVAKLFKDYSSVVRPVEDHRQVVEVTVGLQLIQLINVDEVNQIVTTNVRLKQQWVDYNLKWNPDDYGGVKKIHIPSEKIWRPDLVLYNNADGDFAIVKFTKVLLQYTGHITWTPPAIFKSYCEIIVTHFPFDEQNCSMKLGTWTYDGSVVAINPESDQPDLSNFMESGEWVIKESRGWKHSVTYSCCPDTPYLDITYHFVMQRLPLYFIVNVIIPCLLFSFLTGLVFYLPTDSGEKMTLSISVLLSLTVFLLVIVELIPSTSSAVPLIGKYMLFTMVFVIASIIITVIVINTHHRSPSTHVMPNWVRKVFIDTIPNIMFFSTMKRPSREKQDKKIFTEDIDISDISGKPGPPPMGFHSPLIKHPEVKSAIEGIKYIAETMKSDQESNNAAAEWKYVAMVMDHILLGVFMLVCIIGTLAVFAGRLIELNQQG
# Sequence (P11230 24-501 partner): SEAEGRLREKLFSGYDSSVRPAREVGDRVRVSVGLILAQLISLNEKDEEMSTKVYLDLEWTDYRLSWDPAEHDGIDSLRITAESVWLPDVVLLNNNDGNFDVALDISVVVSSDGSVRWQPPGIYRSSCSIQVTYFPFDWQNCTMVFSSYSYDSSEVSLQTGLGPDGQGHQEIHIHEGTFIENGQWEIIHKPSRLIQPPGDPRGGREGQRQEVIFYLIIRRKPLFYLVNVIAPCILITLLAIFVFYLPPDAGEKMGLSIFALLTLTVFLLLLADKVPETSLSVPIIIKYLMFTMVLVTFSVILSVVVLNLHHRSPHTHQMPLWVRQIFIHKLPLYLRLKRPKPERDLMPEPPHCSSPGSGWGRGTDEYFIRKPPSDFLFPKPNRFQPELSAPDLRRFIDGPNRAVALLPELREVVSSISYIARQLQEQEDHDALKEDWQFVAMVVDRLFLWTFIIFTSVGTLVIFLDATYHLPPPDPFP
# Sequence (Q07001 22-517): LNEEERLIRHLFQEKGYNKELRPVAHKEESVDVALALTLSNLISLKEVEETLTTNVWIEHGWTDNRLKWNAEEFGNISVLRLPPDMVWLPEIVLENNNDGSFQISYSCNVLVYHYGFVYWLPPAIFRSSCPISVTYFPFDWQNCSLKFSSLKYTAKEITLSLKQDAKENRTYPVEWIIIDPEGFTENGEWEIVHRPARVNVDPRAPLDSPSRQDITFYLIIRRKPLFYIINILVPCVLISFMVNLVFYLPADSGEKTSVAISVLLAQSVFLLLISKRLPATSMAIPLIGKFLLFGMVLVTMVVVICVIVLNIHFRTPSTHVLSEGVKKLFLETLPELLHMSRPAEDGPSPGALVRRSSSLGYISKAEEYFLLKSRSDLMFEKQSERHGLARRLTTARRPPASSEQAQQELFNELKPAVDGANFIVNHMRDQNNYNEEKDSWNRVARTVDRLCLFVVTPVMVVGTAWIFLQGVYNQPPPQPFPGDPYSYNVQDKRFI
# Sequence (P07510 23-517): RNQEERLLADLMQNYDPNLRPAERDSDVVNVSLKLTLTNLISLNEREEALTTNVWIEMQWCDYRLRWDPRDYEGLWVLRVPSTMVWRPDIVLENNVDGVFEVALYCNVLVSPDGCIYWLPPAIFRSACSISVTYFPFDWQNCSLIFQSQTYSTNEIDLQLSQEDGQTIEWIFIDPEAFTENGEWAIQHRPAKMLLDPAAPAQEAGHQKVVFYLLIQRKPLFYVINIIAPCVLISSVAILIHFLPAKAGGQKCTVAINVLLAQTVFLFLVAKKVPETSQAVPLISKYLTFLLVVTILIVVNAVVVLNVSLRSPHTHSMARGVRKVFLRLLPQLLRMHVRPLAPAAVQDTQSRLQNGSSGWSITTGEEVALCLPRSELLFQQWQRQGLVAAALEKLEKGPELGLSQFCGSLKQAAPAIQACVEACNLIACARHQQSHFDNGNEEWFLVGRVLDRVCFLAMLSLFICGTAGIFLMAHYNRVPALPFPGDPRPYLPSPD
# experiment_summary: Nicotinic Ach Receptor A1 ANT
# Source text: ANT = antagonist (pIC50), AG = agonist (pEC50). pIC50 and pEC50 are the negative logarithms10 of IC50 and EC50, respectively. Click here for file
measure_name: IC50 (µM)
Supply the numeric figure in µM, leaving out any unit text.

Given the entry COc1ncc(-c2ccc3c(Nc4cc(Oc5cc(F)cc(F)c5)cc(C(=O)O)c4)c(S(=O)(=O)NC4CC4)cnc3c2)c(OC)n1 [Compound 1] , report its measured IC50.
50.1

====

# Tested on: Snu398 cells
# experiment_summary: Cell proliferation and survival, Snu398 (trypan blue, Vi-Cell)
# Type: cell-based, human
# run_conditions: Homo sapiens, SNU-398; Snu398, 4 to 8 days; read-out: viable cell number EC50
measure_name: pEC50
Reminder that pEC50 is minus the log10 of a molar concentration.

Given the entry COc1ncc(-c2ccc3c(Nc4cc(Oc5cc(F)cc(F)c5)cc(C(=O)O)c4)c(S(=O)(=O)NC4CC4)cnc3c2)c(OC)n1 , report its measured pEC50.
5.54

====

# experiment_summary: human plasma protein binding by equilibrium dialysis
# Type: in vitro ADME
measure_name: fraction unbound
In your answer, state the number alone without any accompanying words.

Given the entry COc1ncc(-c2ccc3c(Nc4cc(Oc5cc(F)cc(F)c5)cc(C(=O)O)c4)c(S(=O)(=O)NC4CC4)cnc3c2)c(OC)n1 , report its measured fraction unbound.
0.013

====

# experiment_summary: PK analysis in rats
# Type: in vivo, male Sprague–Dawley rats
# run_conditions: male, Sprague-Dawley, rat, whole blood, IV infusion 0.25 mg/kg
measure_name: clearance

Given the entry COc1ncc(-c2ccc3c(Nc4cc(Oc5cc(F)cc(F)c5)cc(C(=O)O)c4)c(S(=O)(=O)NC4CC4)cnc3c2)c(OC)n1 , report its measured clearance.
69 mL/min/kg

====

# study_system: Adrenergic Receptor a1B (Homo sapiens, UniProt P35368)
# Sequence (P35368 1-520): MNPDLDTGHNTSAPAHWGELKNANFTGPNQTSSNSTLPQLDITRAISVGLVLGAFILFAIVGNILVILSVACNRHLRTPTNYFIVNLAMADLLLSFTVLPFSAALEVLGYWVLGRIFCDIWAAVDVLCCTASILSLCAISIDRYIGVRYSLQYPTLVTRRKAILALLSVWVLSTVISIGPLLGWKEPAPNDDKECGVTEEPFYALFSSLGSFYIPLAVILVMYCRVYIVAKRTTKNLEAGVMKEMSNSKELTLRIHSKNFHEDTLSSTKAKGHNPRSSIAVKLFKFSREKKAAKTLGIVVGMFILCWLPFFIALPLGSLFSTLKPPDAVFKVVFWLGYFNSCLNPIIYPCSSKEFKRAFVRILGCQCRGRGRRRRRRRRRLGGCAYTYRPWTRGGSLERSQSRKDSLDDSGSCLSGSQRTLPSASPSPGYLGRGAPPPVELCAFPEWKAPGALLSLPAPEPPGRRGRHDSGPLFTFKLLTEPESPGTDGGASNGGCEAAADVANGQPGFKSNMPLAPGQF
# experiment_summary: Adrenergic Receptor a1B ANT
measure_name: pIC50
Reminder that pIC50 is minus the log10 of a molar concentration.

Please state recorded pIC50 (tested on Adrenergic Receptor a1B (Homo sapiens, UniProt P35368)) of COc1ncc(-c2ccc3c(Nc4cc(Oc5cc(F)cc(F)c5)cc(C(=O)O)c4)c(S(=O)(=O)NC4CC4)cnc3c2)c(OC)n1 [Compound 1]
4.90
